- TARGET ENTITY: alpha2C adrenergic receptors (Homo sapiens)
- Sequence (P18825 whole entry): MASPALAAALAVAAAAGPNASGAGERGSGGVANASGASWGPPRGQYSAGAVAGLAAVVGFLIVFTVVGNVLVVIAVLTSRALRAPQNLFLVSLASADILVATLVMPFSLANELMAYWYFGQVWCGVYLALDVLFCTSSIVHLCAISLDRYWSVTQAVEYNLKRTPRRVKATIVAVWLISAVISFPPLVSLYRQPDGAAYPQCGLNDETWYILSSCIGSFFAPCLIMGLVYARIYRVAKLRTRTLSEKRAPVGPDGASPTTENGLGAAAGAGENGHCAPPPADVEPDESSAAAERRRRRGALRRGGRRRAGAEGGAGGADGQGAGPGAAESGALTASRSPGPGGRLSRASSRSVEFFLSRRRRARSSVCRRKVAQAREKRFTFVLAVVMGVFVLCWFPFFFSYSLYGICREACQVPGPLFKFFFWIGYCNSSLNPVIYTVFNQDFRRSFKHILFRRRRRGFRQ
- PROCEDURE DETAILS: Receptor Selection and Amplification Technology (RSAT) assay, alpha2C
- TEST SETTINGS: NA = not active at concentrations less than 10 micromolar, read-out: Alpha 2C EC50
- Source text: The imidazole-2-thione compounds of the invention are agonists of alpha2 adrenergic receptors, particularly they tend to be specific or selective agonists of alpha2B and/or to a lesser extent alpha2C adrenergic receptors, in preference over alpha2A adrenergic receptors. […] Al., 1995, Pharmacol. Toxicol. 76, pp. 308-311 (incorporated herein by reference) and is also described below. […]
EC50 by entry:
RESULT TYPE: EC50

1) Cc1ccc(C2=CCCC2Cc2c[nH]c(=S)[nH]2)cc1 (stereo not shown)
> 3000 nM
2) CC1CC(Cc2c[nH]c(=S)[nH]2)C(=O)c2ccccc21 (stereo not shown)
> 2000 nM
3) S=c1[nH]cc(CC2C=CCCC2)[nH]1 (stereo not shown)
> 2000 nM
4) CCC1=CC(Cc2c[nH]c(=S)[nH]2)CC1 (stereo not shown)
> 2000 nM
